- subject-of-test: MRGPRX4 (Homo sapiens, UniProt Q96LA9)
- Sequence (Q96LA9 whole entry): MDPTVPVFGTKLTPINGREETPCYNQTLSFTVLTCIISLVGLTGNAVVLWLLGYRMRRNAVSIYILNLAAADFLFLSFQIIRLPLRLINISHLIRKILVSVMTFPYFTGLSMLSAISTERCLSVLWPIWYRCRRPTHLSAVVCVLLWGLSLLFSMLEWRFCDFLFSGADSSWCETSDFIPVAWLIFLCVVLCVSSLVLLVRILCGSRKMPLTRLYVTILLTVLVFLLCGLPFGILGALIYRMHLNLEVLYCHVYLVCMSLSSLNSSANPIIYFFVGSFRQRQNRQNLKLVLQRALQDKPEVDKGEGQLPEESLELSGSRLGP
- test: MRGPRX4 activation, Fluo-8 Ca2+ FLIPR assay in HEK293T cells stably expressing MRGPRX4
- Assay type: cell-based
- condition-set: MRGPRX4 activation, Ca2+ fluorescence; no activation in tested range reported as III; read-out: Activity (EC50 μM)
- Experimental: In some embodiments, cells were cultured in poly-D-Lys coated blacked walled, clear-bottom 96-well microplates. […] The concentration of solution should be determined according to the protocol settings and experimental needs (e.g., Log[M]=−4, −5, −6, −7, −8, and −9). […] A fluorescent signal baseline was measured using FLIPR®Tetra for 30 s. […] The fluorescent signal would be measured for another 150 s. Activity of each compound was calculated by the fluorescence change (dF/F0). […]
For each entry below, report its EC50 value.

Would you please look over these solved cases?
CC[C@H]1[C@@H](O)[C@@H]2[C@H](CC[C@]3(C)[C@@H]([C@H](C)CCNC(=O)NS(=O)(=O)c4ccc(Br)cc4OC(F)(F)F)CC[C@@H]23)[C@@]2(C)CC[C@H](F)C[C@@H]12 ... > 100 µM
CC[C@H]1[C@@H](O)[C@@H]2[C@H](CC[C@]3(C)[C@@H]([C@H](C)CCC(=O)O)CC[C@@H]23)[C@@]2(C)CCC(F)(F)C[C@@H]12 ... > 100 µM
C[C@H](CCC(C)(C)O)[C@H]1CC[C@H]2[C@@H]3CC[C@@H]4CCCC[C@]4(C)[C@H]3CC[C@]12C ... > 100 µM
CC[C@H]1[C@@H](O)[C@@H]2[C@H](CC[C@]3(C)[C@@H]([C@H](C)CCNC(=O)NS(=O)(=O)c4ccc(C)cc4)CC[C@@H]23)[C@@]2(C)CCCC[C@@H]12 ... > 100 µM
CC[C@H]1[C@@H](O)[C@@H]2[C@H](CC[C@]3(C)[C@@H]([C@H](C)CCC(=O)NS(C)(=O)=O)CC[C@@H]23)[C@@]2(C)CC[C@H](F)C[C@@H]12 ... > 100 µM

Respectfully, I request EC50 for each entry included below.
1. C[C@H](CC/C=C/C(=O)O)[C@H]1CC[C@H]2[C@@H]3CC[C@@H]4C[C@H](O)CC[C@]4(C)[C@H]3C[C@H](O)[C@]12C
2. C[C@H](CCCC(=O)O)[C@H]1CC[C@H]2[C@@H]3CC[C@@H]4C[C@H](O)CC[C@]4(C)[C@H]3C[C@H](O)[C@]12C
3. CC[C@H]1[C@@H](O)[C@@H]2[C@H](CC[C@]3(C)[C@@H]([C@H](C)CCNC(=O)NS(=O)(=O)c4ccc(C(C)(C)C#N)cc4)CC[C@@H]23)[C@@]2(C)CCCC[C@@H]12

Response given:
1. < 50 µM
2. < 50 µM
3. > 100 µM

###

For each entry below, report its MRGPRX4 activation, Average value.
- subject-of-test: MRGPRX4 (Homo sapiens)
- test: MRGPRX4 activation, Fluo-8 Ca2+ FLIPR assay in HEK293T cells stably expressing MRGPRX4
- Format: cell-based
- Set-up: key: fluorescence change dF/F0
- condition-set: E3-9, Conc. (Log[M]) −5.9
Answers are plain numbers.

Respectfully, I request MRGPRX4 activation, Average for each entry included below.
1. CC[C@H]1[C@@H](O)[C@@H]2[C@H](CC[C@]3(C)[C@@H]([C@H](C)CCNC(=O)NS(=O)(=O)c4cccs4)CC[C@@H]23)[C@@]2(C)CCC(F)(F)C[C@@H]12
2. CC[C@H]1[C@@H](O)[C@@H]2[C@H](CC[C@]3(C)[C@@H]([C@H](C)CCNC(=O)NS(=O)(=O)c4cccs4)CC[C@@H]23)[C@@]2(C)CCCC[C@@H]12
3. CC[C@H]1[C@@H](O)[C@@H]2[C@H](CC[C@]3(C)[C@@H]([C@H](C)COC(=O)NS(=O)(=O)c4ccc(C(C)(C)CF)cc4)CC[C@@H]23)[C@@]2(C)CCCC[C@@H]12
4. CC[C@H]1[C@@H](O)[C@@H]2[C@H](CC[C@]3(C)[C@@H]([C@H](C)CCNC(=O)NS(=O)(=O)c4cc(F)ccc4F)CC[C@@H]23)[C@@]2(C)CC[C@H](F)C[C@@H]12

Response given:
[0.013, 0.011, 0.018, 0.018]

Respectfully, I request MRGPRX4 activation, Average for each entry included below.
1. CC[C@H]1[C@@H](O)[C@@H]2[C@H](CC[C@]3(C)[C@@H]([C@H](C)CCNC(=O)C(=O)NS(=O)(=O)c4cccs4)CC[C@@H]23)[C@@]2(C)CCCC[C@@H]12
2. CC[C@H]1[C@@H](O)[C@@H]2[C@H](CC[C@]3(C)[C@@H]([C@H](C)CNC(=O)NS(=O)(=O)c4ccc5c(c4)CCC(C)(C)O5)CC[C@@H]23)[C@@]2(C)CCCC[C@@H]12
3. CC[C@H]1[C@@H](O)[C@@H]2[C@H](CC[C@]3(C)[C@@H]([C@H](C)CCNS(=O)(=O)C[C@]45CC[C@H](CC4=O)C5(C)C)CC[C@@H]23)[C@@]2(C)CCCC[C@@H]12

Response given:
0.018
0.025
0.018

###

- subject-of-test: human FXR (NR1H4) (Homo sapiens)
- Sequence (Q96RI1 1-476 isoform Q96RI1-1): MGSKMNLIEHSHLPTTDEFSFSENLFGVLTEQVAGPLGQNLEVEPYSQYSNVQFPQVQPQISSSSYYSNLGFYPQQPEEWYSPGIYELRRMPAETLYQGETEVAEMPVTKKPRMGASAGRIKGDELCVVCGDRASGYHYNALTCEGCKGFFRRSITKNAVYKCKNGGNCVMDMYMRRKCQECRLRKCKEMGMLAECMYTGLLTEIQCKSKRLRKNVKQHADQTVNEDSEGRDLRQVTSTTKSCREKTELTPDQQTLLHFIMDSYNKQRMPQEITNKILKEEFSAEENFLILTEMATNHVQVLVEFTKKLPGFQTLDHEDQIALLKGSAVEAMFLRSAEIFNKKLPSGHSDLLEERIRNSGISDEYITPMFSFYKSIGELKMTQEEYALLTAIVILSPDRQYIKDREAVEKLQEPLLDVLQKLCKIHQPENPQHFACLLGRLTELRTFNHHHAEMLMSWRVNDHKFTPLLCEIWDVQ
- test: Human FXR (NR1H4) agonist assessment, FXRE-NanoLuc reporter in HEK293T cells
- Assay type: cell-based
- condition-set: FXR activation, HEK293T FXRE-NanoLuc reporter, 24 hr
property: Efficacy (maximum measured induction of NanoLuc, normalized to CDCA set as 100%)

CC[C@H]1[C@@H](O)[C@@H]2[C@H](CC[C@]3(C)[C@@H]([C@H](C)CCNC(=O)NS(=O)(=O)c4ccc(Br)cc4OC(F)(F)F)CC[C@@H]23)[C@@]2(C)CC[C@H](F)C[C@@H]12 [9-6] ... C (100%<efficacy <=300%)
CC[C@H]1[C@@H](O)[C@@H]2[C@H](CC[C@]3(C)[C@@H]([C@H](C)CCNC(=O)NS(=O)(=O)C4CCC(C)(C)CC4)CC[C@@H]23)[C@@]2(C)CCCC[C@@H]12 [5-5] ... C (100%<efficacy <=300%)
CC[C@H]1[C@@H](O)[C@@H]2[C@H](CC[C@]3(C)[C@@H]([C@H](C)CCCOS(=O)(=O)O)CC[C@@H]23)[C@@]2(C)CCCC[C@@H]12 [2-6] ... B (300%<efficacy <=400%)
CC[C@H]1[C@@H](OC(=O)c2cccc(I)c2)[C@@H]2[C@H](CC[C@]3(C)C([C@H](C)CCC(=O)OC)=CC(=O)[C@@H]23)[C@@]2(C)CCCC[C@@H]12 [3-2] ... C (100%<efficacy <=300%)
CC[C@H]1[C@@H](O)[C@@H]2[C@H](CC[C@]3(C)[C@@H]([C@H](C)CCOC(=O)NS(=O)(=O)c4ccc5c(c4)CCC(C)(C)O5)CC[C@@H]23)[C@@]2(C)CCCC[C@@H]12 [19-1] ... B (300%<efficacy <=400%)
CC[C@H]1[C@@H](OC(=O)c2cccc(I)c2)[C@H]2[C@@H]3[C@@H](O)C=C([C@H](C)CCC(=O)OC)[C@@]3(C)CC[C@@H]2[C@@]2(C)CCCC[C@@H]12 [3-3] ... C (100%<efficacy <=300%)
CC[C@H]1[C@@H](O)[C@@H]2[C@H](CC[C@]3(C)[C@@H]([C@H](C)CCNC(=O)NS(=O)(=O)N4CCCC4)CC[C@@H]23)[C@@]2(C)CCCC[C@@H]12 [5-11] ... C (100%<efficacy <=300%)
CC[C@H]1[C@@H](O)[C@@H]2[C@H](CC[C@]3(C)[C@@H]([C@H](C)CCNC(=O)NS(=O)(=O)c4cc(F)cc(F)c4)CC[C@@H]23)[C@@]2(C)CCCC[C@@H]12 [5-24] ... B (300%<efficacy <=400%)

Respectfully, I request Efficacy (maximum measured induction of NanoLuc, normalized to CDCA set as 100%) for each entry included below.
1. CC[C@H]1[C@@H](O)[C@@H]2[C@H](CC[C@]3(C)[C@@H]([C@H](C)CNC(=O)NS(=O)(=O)c4ccc5c(c4)CCC(C)(C)O5)CC[C@@H]23)[C@@]2(C)CCCC[C@@H]12 [20-2]
2. CC[C@H]1[C@@H](O)[C@@H]2[C@H](CC[C@]3(C)[C@@H]([C@H](C)CCNC(=O)NS(=O)(=O)Cc4ccccc4)CC[C@@H]23)[C@@]2(C)CCCC[C@@H]12 [5-13]

Response given:
1. B (300%<efficacy <=400%)
2. C (100%<efficacy <=300%)

###

For each entry below, report its MRGPRX4 activation, Average value.
- subject-of-test: UniProtKB Q96LA9
- test: MRGPRX4 activation, Fluo-8 Ca2+ FLIPR assay in HEK293T cells stably expressing MRGPRX4
- Assay type: cell-based
- Design: key: fluorescence change dF/F0
- condition-set: E3-9, Conc. (Log[M]) −7.3

Would you please look over these solved cases?
CCOC(=O)C(=O)NCC[C@@H](C)[C@H]1CC[C@H]2[C@@H]3[C@H](O)[C@H](CC)[C@@H]4CCCC[C@]4(C)[C@H]3CC[C@]12C ... 0.013
CC[C@H]1[C@@H](O)[C@@H]2[C@H](CC[C@]3(C)[C@@H]([C@H](C)CCNS(=O)(=O)C4CC4)CC[C@@H]23)[C@@]2(C)CCCC[C@@H]12 ... 0.016
CC[C@H]1[C@@H](O)[C@@H]2[C@H](CC[C@]3(C)[C@@H]([C@H](C)CCNC(=O)NS(=O)(=O)c4cccs4)CC[C@@H]23)[C@@]2(C)CCCC[C@@H]12 ... 0.013
CC[C@H]1[C@@H](O)[C@@H]2[C@H](CC[C@]3(C)[C@@H]([C@H](C)CCNC(=O)NS(=O)(=O)c4cc(F)ccc4F)CC[C@@H]23)[C@@]2(C)CC[C@H](F)C[C@@H]12 ... 0.019

Kindly review the next compound as well.
Challenge: Item CC[C@H]1[C@@H](O)[C@@H]2[C@H](CC[C@]3(C)[C@@H]([C@H](C)CCNS(=O)(=O)c4cc(F)ccc4F)CC[C@@H]23)[C@@]2(C)CCCC[C@@H]12 : provide MRGPRX4 activation, Average
Response given: 0.018
